Recorded EC50, one value per entry.
Target: Protein RecA (Mycobacterium tuberculosis, UniProt P9WHJ3)
Assay: Fluorescence Cell-Free Homogeneous Dose Retest to Identify Inhibitors of RecA-Intein Splicing Activity. [Related pubchem assays (depositor defined):AID2097, AID2223, AID489010, AID492950]
Type: functional
The source made the active and inactive calls. No stated cut-off is given here; in the data, actives have a measured EC50 and inactives only a lower limit.

Some compounds with known EC50 results, for comparison:
compound: CCOc1cc(C(c2c(C)n[nH]c2O)c2c(C)n[nH]c2O)ccc1OCc1ccc([N+](=O)[O-])cc1
test-target: Protein RecA (Mycobacterium tuberculosis, UniProt P9WHJ3)
EC50: 0.159 µM (active)

compound: COc1ccc(/C=C2/C(=O)N(Cc3ccccc3)N=C2C)cc1
test-target: Protein RecA (Mycobacterium tuberculosis, UniProt P9WHJ3)
EC50: 1.91 µM (active)

compound: CC1=NN(c2ccc(C)c(C)c2)C(=O)C1C(c1cccc(O)c1)C1C(=O)N(c2ccc(C)c(C)c2)N=C1C (centres undefined)
test-target: Protein RecA (Mycobacterium tuberculosis, UniProt P9WHJ3)
EC50: 0.468 µM (active)

compound: O=C1CC/[N+](=C\c2ccc(Cl)cc2)[N-]1
test-target: Protein RecA (Mycobacterium tuberculosis, UniProt P9WHJ3)
EC50: 3.64 µM (active)

compound: COC(CN(C(=O)CCl)C(C(=O)NC1CCCCC1)c1ccc(Cl)cc1)OC (centres undefined)
test-target: Protein RecA (Mycobacterium tuberculosis, UniProt P9WHJ3)
EC50: 1.81 µM (active)

Any idea what EC50 was measured for CC1=NN(CCC#N)C(=O)/C1=C/c1ccc(N(C)C)cc1 ?
3.17 µM (active)

Any idea what EC50 was measured for Cc1ccc(S(=O)(=O)Cc2cc(F)c([N+](=O)[O-])cc2[N+](=O)[O-])cc1 ?
17.2 µM (active)

Any idea what EC50 was measured for O=C1CC(c2cccnc2)=NN1c1ccccc1 ?
13.9 µM (active)

Any idea what EC50 was measured for S=C(Nc1ccc2nsnc2c1)N1CCCCCC1 ?
46.7 µM (active)
